Test system: pigweed
Procedure Summary: Test B pre/postemergence pigweed
Format: in vivo, Amaranthus retroflexus
Experimental Conditions: Postemergence, Rate 125 g/ha; scale of 0 to 10 where 0 is no effect and 10 is complete control
Exercise: state measured Plant response rating, Redroot pigweed for each of the compounds provided.
The reply should be a number, written without any unit.

// query Give the measured Plant response rating, Redroot pigweed for CCc1nc(C)c(C(C)n2c(=O)on(C(=O)N(c3ccc(F)cc3F)C(C)C)c2=O)s1 (stereo not drawn) [Compound 589]
// result 0

// query Give the measured Plant response rating, Redroot pigweed for CC(C)N(C(=O)n1oc(=O)n(CC(=O)C2CCC2)c1=O)c1ccccc1 [Compound 641]
// result 0

// query Give the measured Plant response rating, Redroot pigweed for CC(=O)OCC(CCl)n1c(=O)on(C(=O)N(c2ccc(F)cc2)C(C)C)c1=O (stereo not drawn) [Compound 596]
// result 0

// query Give the measured Plant response rating, Redroot pigweed for CC(C)N(C(=O)n1oc(=O)n(CCCCF)c1=O)c1ccccc1 [Compound 581]
// result 8

// query Give the measured Plant response rating, Redroot pigweed for CC(C)N(C(=O)n1oc(=O)n(CC2CCCCO2)c1=O)c1ccc(F)cc1 (stereo not drawn) [Compound 624]
// result 0

// query Give the measured Plant response rating, Redroot pigweed for CCOC(Cn1c(=O)on(C(=O)N(c2ccccc2)C(C)C)c1=O)OCC [Compound 632]
// result 0

----------
System: sugar beet
Procedure Summary: Test B pre/postemergence sugar beet
Assay type: in vivo, Beta vulgaris
Experimental Conditions: Preemergence, Rate 500 g/ha; scale of 0 to 10 where 0 is no effect and 10 is complete control
Measured Metric: Plant response rating, Sugarbeets
The reply should be a number, written without any unit.

// query # return Plant response rating, Sugarbeets for CCC(CC)N(C(=O)n1oc(=O)n(-c2ccccc2C)c1=O)c1ccc(F)cc1 [Compound 193] , test system: sugar beet
// result 0

// query # return Plant response rating, Sugarbeets for CCOC(Cn1c(=O)on(C(=O)N(c2ccccc2)C(C)C)c1=O)OCC [Compound 632] , test system: sugar beet
// result 0

// query # return Plant response rating, Sugarbeets for CCCCCC#CCn1c(=O)on(C(=O)N(c2ccc(F)cc2)C(C)C)c1=O [Compound 254] , test system: sugar beet
// result 6

// query # return Plant response rating, Sugarbeets for Cc1ccccc1-n1c(=O)on(C(=O)N(c2ccc(C(C)(C)C)cc2)C(C)C)c1=O [Compound 270] , test system: sugar beet
// result 0

// query # return Plant response rating, Sugarbeets for C=CCn1c(=O)on(C(=O)N(c2ccc(F)cc2)C(C)C(=O)OCC)c1=O (centres unmarked) [Compound 279] , test system: sugar beet
// result 0

// query # return Plant response rating, Sugarbeets for CC(C)N(C(=O)n1oc(=O)n(CC2=NOCCC2)c1=O)c1ccc(F)cc1 [Compound 601] , test system: sugar beet
// result 5

// query # return Plant response rating, Sugarbeets for CCN(CC)C(=O)n1oc(=O)n(C2CC2)c1=O [Compound 297] , test system: sugar beet
// result 0

// query # return Plant response rating, Sugarbeets for CC(=O)OCC(CCl)n1c(=O)on(C(=O)N(c2ccc(F)cc2)C(C)C)c1=O (centres unmarked) [Compound 596] , test system: sugar beet
// result 0

----------
Exercise: state measured Cocklebur plant response rating for each of the compounds provided.
Tested on: cocklebur
Procedure Summary: Test B pre/postemergence cocklebur
Type: in vivo, Xanthium strumarium
Experimental Conditions: Preemergence, Rate 500 g/ha; scale of 0 to 10 where 0 is no effect and 10 is complete control
Procedure: […] At the same time, these crop and weed species were also treated with postemergence applications of test chemicals formulated in the same manner. […] Treated plants and controls were maintained in a greenhouse for twelve to sixteen days, after which all species were compared to controls and visually evaluated. […]
The reply should be a number, written without any unit.

// query Give the measured Cocklebur plant response rating for COC(=O)CCCn1c(=O)on(C(=O)N(c2ccccc2)C(C)C)c1=O [Compound 572]
// result 0

// query Give the measured Cocklebur plant response rating for CC(C)=CCn1c(=O)on(C(=O)N(c2ccc(Cl)cc2)C(C)C)c1=O [Compound 545]
// result 0

// query Give the measured Cocklebur plant response rating for CCOC(=O)C=C(Cn1c(=O)on(C(=O)N(c2ccc(F)cc2F)C(C)C)c1=O)OCC [Compound 519]
// result 0

// query Give the measured Cocklebur plant response rating for CC(C)N(C(=O)n1oc(=O)n(C2CC3CCC2C3)c1=O)c1ccc(F)cc1F (stereo not shown) [Compound 326]
// result 0

----------
Test system: sugar beet
Procedure Summary: Test B pre/postemergence sugar beet
Type: in vivo, Beta vulgaris
Experimental Conditions: Preemergence, Rate 125 g/ha; scale 0 to 10 (0 no effect, 10 complete control)
Exercise: state measured Plant response rating, Sugarbeets for each of the compounds provided.

// query Give the measured Plant response rating, Sugarbeets for `CC(C)N(C(=O)n1oc(=O)n(Cc2cccs2)c1=O)c1ccc(F)cc1`
// result 3

// query Give the measured Plant response rating, Sugarbeets for `Cc1ccccc1-n1c(=O)on(C(=O)N(c2ccc(Cl)cc2)C(C)C)c1=O`
// result 0

// query Give the measured Plant response rating, Sugarbeets for `CC(C)N(C(=O)n1oc(=O)n(-c2ccc(OC(F)(F)F)cc2)c1=O)C1=CCOCC1`
// result 0

// query Give the measured Plant response rating, Sugarbeets for `CC(C)Oc1cc(-n2c(=O)on(C(=O)N(c3ccc(F)cc3)C(C)C)c2=O)c(Cl)cc1Cl`
// result 0

// query Give the measured Plant response rating, Sugarbeets for `CC(C)N(C(=O)n1oc(=O)n(-c2cc(Cl)cc(Cl)c2)c1=O)C1=CCOCC1`
// result 0

----------
System: blackgrass
Procedure Summary: Test B pre/postemergence blackgrass
Assay type: in vivo, Alopecurus myosuroides
Experimental Conditions: Rate 125 g/ha; Postemergence; scale 0 to 10, 0 no effect, 10 complete control
Experimental: […] At the same time, these crop and weed species were also treated with postemergence applications of test chemicals formulated in the same manner. […] Treated plants and controls were maintained in a greenhouse for twelve to sixteen days, after which all species were compared to controls and visually evaluated. […]
Measured Metric: Blackgrass plant response rating
The reply should be a number, written without any unit.

// query Give the measured Blackgrass plant response rating for `CCN(CC)C(=O)n1oc(=O)n(-c2ccc(OC)cc2)c1=O`
// result 0

// query Give the measured Blackgrass plant response rating for `Cc1ccccc1-n1c(=O)on(C(=O)N(c2ccc(Cl)cc2)C(C)C)c1=O`
// result 0

// query Give the measured Blackgrass plant response rating for `Cc1nn(C)c(C)c1-n1c(=O)on(C(=O)N(c2ccc(F)cc2)C(C)C)c1=O`
// result 5

// query Give the measured Blackgrass plant response rating for `Cc1ccccc1-n1c(=O)on(C(=O)N(c2ccc(C#N)cc2)C(C)C)c1=O`
// result 0

// query Give the measured Blackgrass plant response rating for `COc1ccc(-n2c(=O)on(C(=O)N(C3=CCOCC3)C(C)C)c2=O)cc1`
// result 4

// query Give the measured Blackgrass plant response rating for `CCN(C(=O)n1oc(=O)n(-c2ccc(C)cc2C)c1=O)C1CCCCC1`
// result 0

// query Give the measured Blackgrass plant response rating for `Cc1cccc(C)c1-n1c(=O)on(C(=O)N(c2ccccc2)C(C)C)c1=O`
// result 0

----------
System: bedstraw
Procedure Summary: Test B pre/postemergence bedstraw
Format: in vivo, Galium aparine
Experimental Conditions: Preemergence, Rate 125 g/ha; scale 0 to 10 (0 no effect, 10 complete control)
Exercise: state measured Plant response rating, Bedstraw for each of the molecules provided.
The reply should be a number, written without any unit.

// query Give the measured Plant response rating, Bedstraw for `C=CCn1c(=O)on(C(=O)N(c2ccccc2)C(C)C)c1=O`
// result 0

// query Give the measured Plant response rating, Bedstraw for `Cc1nn(C)c(C)c1-n1c(=O)on(C(=O)N(c2ccc(F)cc2)C(C)C)c1=O`
// result 0

// query Give the measured Plant response rating, Bedstraw for `CC(C)N(C(=O)n1oc(=O)n(-c2ccc(OC(F)(F)F)cc2)c1=O)C1=CCOCC1`
// result 0

// query Give the measured Plant response rating, Bedstraw for `Cc1ccccc1-n1c(=O)on(C(=O)N(c2ccc(F)cc2)C(C)C)c1=O`
// result 1

// query Give the measured Plant response rating, Bedstraw for `Cc1ccccc1Cn1c(=O)on(C(=O)N(c2ccc(F)cc2)C(C)C)c1=O`
// result 0

----------
Exercise: state measured Ducksalad plant response rating for each of the compounds provided.
Test system: duck salad
Procedure Summary: Test B flood test duck salad
Type: in vivo, Heteranthera limosa
Experimental Conditions: Rate 500 g/ha; Pre-emergence; flood test species; scale 0 to 10 (0 no effect, 10 complete control)

// query Give the measured Ducksalad plant response rating for CC(C)N(C(=O)n1oc(=O)n(C2CC3CCC2C3)c1=O)c1ccc(F)cc1F (centres unmarked) [Compound 326]
// result 0

// query Give the measured Ducksalad plant response rating for CC(C)N(C(=O)n1oc(=O)n(CC2CC2)c1=O)c1ccc(F)cc1 [Compound 251]
// result 0

// query Give the measured Ducksalad plant response rating for COC(CCl)n1c(=O)on(C(=O)N(c2ccc(Cl)cc2)C(C)C)c1=O (centres unmarked) [Compound 458]
// result 0

// query Give the measured Ducksalad plant response rating for CC(C)N(C(=O)n1oc(=O)n(CC2(C)COC2)c1=O)c1ccc(F)cc1 [Compound 226]
// result 0

// query Give the measured Ducksalad plant response rating for C=C(Cn1c(=O)on(C(=O)N(c2ccc(F)cc2)C(C)C)c1=O)C[Si](C)(C)C [Compound 256]
// result 0

// query Give the measured Ducksalad plant response rating for CC(C)N(C(=O)n1oc(=O)n(Cc2ccco2)c1=O)c1ccc(F)cc1 [Compound 207]
// result 2

// query Give the measured Ducksalad plant response rating for CCOC(=O)CC(C(=O)OCC)n1c(=O)on(C(=O)N(c2ccc(F)cc2F)C(C)C)c1=O (centres unmarked) [Compound 465]
// result 0

// query Give the measured Ducksalad plant response rating for CC(C)N(C(=O)n1oc(=O)n(CCCl)c1=O)c1ccc(Cl)cc1 [Compound 474]
// result 0

Origin of the recorded values: patent US6737383B1
